Origin of measurements: patent US12178842B2

tested.target: PCSK9 (Homo sapiens, UniProt Q8NBP7)
Construct: biotin (biotinylated); purchased
Sequence (Q8NBP7 153-692): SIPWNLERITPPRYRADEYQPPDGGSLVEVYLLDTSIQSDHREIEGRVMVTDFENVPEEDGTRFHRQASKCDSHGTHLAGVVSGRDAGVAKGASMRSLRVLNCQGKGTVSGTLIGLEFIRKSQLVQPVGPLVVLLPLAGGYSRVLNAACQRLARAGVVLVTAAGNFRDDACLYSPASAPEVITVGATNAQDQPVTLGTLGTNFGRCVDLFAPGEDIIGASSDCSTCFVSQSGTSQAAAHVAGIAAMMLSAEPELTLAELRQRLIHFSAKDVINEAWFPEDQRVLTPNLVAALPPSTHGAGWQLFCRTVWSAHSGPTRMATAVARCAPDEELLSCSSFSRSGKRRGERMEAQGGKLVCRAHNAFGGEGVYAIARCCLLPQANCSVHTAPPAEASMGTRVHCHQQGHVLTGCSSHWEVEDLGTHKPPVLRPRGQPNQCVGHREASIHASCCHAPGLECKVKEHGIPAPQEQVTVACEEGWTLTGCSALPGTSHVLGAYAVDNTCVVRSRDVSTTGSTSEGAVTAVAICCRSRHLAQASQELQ
method.notes: PCSK9 Alexa FRET Plus TR-FRET assay
Format: binding
condition.summary: Ki calculated from IC50 and KD of AF cyclic peptide Reagent B; 0.5 nM PCSK9, 960 nM AF cyclic peptide; read-out: Alexa FRET Plus TR-FRET
assay.readout: Ki

| given.smiles | observed |
| --- | --- |
| COc1ccc(C[C@@H]2NC(=O)[C@H]([C@@H](C)O)NC(=O)[C@@H]3[C@@H]4CCN3C(=O)[C@@H]3Cc5cn(c6ccc(F)cc56)CCCCCCN(Cc5ccc(cc5)CCNC(=O)[C@]5(C)CCCN5C2=O)C(=O)CCC(=O)N[C@@H](C)C(=O)N[C@H](CNC(=O)COCCOCC[N+](C)(C)CCOCCNC(=O)COCCOCCNC(=O)COCCOCCNC(=O)CC[C@H](NC(=O)CCCCCCCCCCCCCCCCC(=O)O)C(=O)O)C(=O)N[C@@H](Cc2cccc(c2)CNC(=O)CO4)C(=O)N3)cc1 | < 6 pM |

With those in mind, consider the next molecule.
Name the recorded Ki for COc1ccc(C[C@@H]2NC(=O)[C@H]([C@@H](C)O)NC(=O)[C@@H]3[C@@H]4CCN3C(=O)[C@@H]3Cc5cn(c6ccc(F)cc56)CCCCCCN(Cc5ccc(cc5)CCNC(=O)[C@]5(C)CCCN5C2=O)C(=O)CCC(=O)N[C@@H](C)C(=O)N[C@H](CNC(=O)COCCOCCNC(=O)COCCOCCNC(=O)CCCCC[N+](C)(C)CCNC(=O)CC[C@H](NC(=O)CCCCCCCCCCCCCCCCC(=O)O)C(=O)O)C(=O)N[C@@H](Cc2cccc(c2)CNC(=O)CO4)C(=O)N3)cc1 .
< 6 pM
